pIC50: −log10 of the molar value.
Ok so here's the combined literature set: pIC50 for Vascular endothelial growth factor receptor 2 (Homo sapiens, UniProt P35968).
REPORTED METRIC: pIC50

Examples from the recorded data:
MOLECULE: COc1ccc(-c2nc3ccc(-c4nnc(SCC(=O)c5ccc(O)c(O)c5)o4)cc3[nH]2)cc1
REPORTED METRIC: pIC50
MEASURED: 6.30
--
MOLECULE: CCS(=O)(=O)c1ccc2[nH]nc(C(=O)NNC(=O)NC3CCCCCC3)c2c1
REPORTED METRIC: pIC50
MEASURED: 7.92
--
MOLECULE: Cc1occ(Sc2nc3ccccc3c(=O)n2-c2ccccc2)c1C1CC(c2ccco2)Nc2ccccc2N1 (stereo not drawn)
REPORTED METRIC: pIC50
MEASURED: 4.50

1: O=[N+]([O-])c1ccc(C2=NNC(c3cccs3)C2)cc1 (stereo not drawn)
2: CC(=O)C1C(c2ccc([N+](=O)[O-])cc2)=NN(C=O)C1c1cccs1 (stereo not drawn)
# min-compare on pIC50 between 1 and 2 Write the label of whichever entry you select.
1
(1: 3.05, 2: 3.49)
